Listing of entries alongside the reported growth.
Test system: M14 melanoma
Assay: NCI-60 one-dose screen, 48 h (100 = growth as untreated, 0 = no growth, -100 = all killed)
Settings: 10 µM unless noted
Method: Growth inhibition of the M14 human tumor cell line is measured as a screen for anti-cancer activity. Cells are grown in 96 well plates and exposed to the test compound for 48 hours. Compounds are tested at a single concentration, which is 10^-5 M for most compounds. The reported endpoint is percent growth (GI% or GIPRCNT), where numbers from 0 - 100% represent growth inhibition, and numbers from -100% - 0 represent cell death. For example, a value of 40 represents 60% growth inhibition. […]
About 83,000 compounds went through this panel and 20% of them were active in at least one assay; those are over-represented in the sample as a whole.
I only need the number, in %, no unit after it.

CC(C)c1ccc(C(=O)Nc2sc3c(CN(C)C)c(O)ccc3c2C(N)=O)cc1 : 18.5
Cc1cc(C)c2c(c1)N1OC(C2)C[C@H]1/C=C/c1ccccc1 (stereo not given in full) : 104
C[n+]1c2ccccc2c(NC2CCNCC2)c2[nH]c3ccccc3c21 : 60.1

Data request: Item under review: COc1ccc(-c2cc(C(=O)Nc3nc4cc(C)c(C)cc4s3)nc3cc(-c4ccccc4)nn23)cc1OC . Reported growth?
Data returned: 103

Data request: Input COc1ccc(-n2nnc(C(=O)O)c2-c2cc(OC)c(OC)c(OC)c2)cc1
Data returned: 104
